Assay: Nanoclick permeability assay
Property Name: cell entry EC50 (nM)
Lab book: enter the figure in nM, no units written.

See these solved cases before continuing.
Compound	Unit String	Measured Number
CC(=O)N[C@@H](CCCCN=[N+]=[N-])C(=O)NCCC(=O)N[C@@H](CC(C)C)C(=O)N[C@H](C(=O)N[C@@H](Cc1ccccc1)C(=O)N[C@]1(C)CCCCCCC=CCCC[C@@](C)(C(=O)N[C@@H](CO)C(=O)N[C@@H](C)C(=O)N[C@@H](C)C(N)=O)NC(=O)[C@H](CC2CCC2)NC(=O)[C@H](CCC(N)=O)NC(=O)[C@H](CCCCN)NC(=O)[C@H](Cc2c[nH]c3ccccc23)NC(=O)[C@H](Cc2ccc(O)cc2)NC(=O)[C@H](CCC(=O)O)NC1=O)[C@@H](C)O [MP-549, AZIDE-ATSP-7041 (A8K)]	nM	233
CC(=O)N[C@@H](CCCCN=[N+]=[N-])C(=O)NCCC(=O)N[C@@H](CC(C)C)C(=O)N[C@@H](CCCCN)C(=O)N[C@@H](Cc1ccccc1)C(=O)N[C@]1(C)CCCCCCC=CCCC[C@@](C)(C(=O)N[C@@H](CO)C(=O)N[C@@H](C)C(=O)N[C@@H](C)C(N)=O)NC(=O)[C@H](CC2CCC2)NC(=O)[C@H](CCC(N)=O)NC(=O)[C@H](C)NC(=O)[C@H](Cc2c[nH]c3ccccc23)NC(=O)[C@H](Cc2ccc(O)cc2)NC(=O)[C@H](CCC(=O)O)NC1=O [MP-547, AZIDE-ATSP-7041 (T2K)]	nM	72.2

Just so you know, measured cell entry EC50 for CC(=O)N[C@@H](CCCCN=[N+]=[N-])C(=O)NCCC(=O)N[C@@H](CC(C)C)C(=O)N[C@H](C(=O)N[C@@H](Cc1ccccc1)C(=O)N[C@]1(C)CCCCCCC=CCCC[C@@](C)(C(=O)N[C@@H](CO)C(=O)N[C@@H](C)C(=O)N[C@@H](C)C(N)=O)NC(=O)[C@H](CC2CCC2)NC(=O)[C@H](CCCCN)NC(=O)[C@H](C)NC(=O)[C@H](Cc2c[nH]c3ccccc23)NC(=O)[C@H](Cc2ccc(O)cc2)NC(=O)[C@H](CCC(=O)O)NC1=O)[C@@H](C)O [MP-550, AZIDE-ATSP-7041 (Q9K)] came out at 437

###

Assay: Lactate dehydrogenase (LDH) release assay
Type: cell-based
Settings: LDH: Cytotoxicity assay: EC50
pEC50: −log10 of the molar value.
Property Name: pEC50

Compound	pEC50
CC(C)C[C@@H]1NC(=O)[C@H](C)NC(=O)[C@H](Cc2c[nH]c3ccccc23)NC(=O)[C@H](Cc2ccc(O)cc2)NC(=O)[C@H](CCC(=O)O)NC(=O)[C@](C)(NC(=O)[C@H](Cc2ccccc2)NC(=O)[C@H](CO)NC(=O)[C@@H](NC(=O)[C@H](CO)NC(=O)CNC(=O)[C@@H](N)CCCCN=[N+]=[N-])[C@@H](C)O)CCCCCCC=CCCC[C@@](C)(C(N)=O)NC(=O)[C@H](CC(C)C)NC1=O [MP-0179]	< 4.30
CC(=O)N[C@@H](CCCCN=[N+]=[N-])C(=O)NCCC(=O)N[C@@H](CC(C)C)C(=O)N[C@H](C(=O)N[C@@H](Cc1ccccc1)C(=O)N[C@]1(C)CCCCCCC=CCCC[C@@](C)(C(=O)N[C@@H](CO)C(=O)N[C@@H](C)C(=O)N[C@@H](C)C(N)=O)NC(=O)[C@H](CC2CCC2)NC(=O)[C@H](CCC(N)=O)NC(=O)[C@H](C)NC(=O)[C@H](CCC(=O)O)NC(=O)[C@H](Cc2ccc(O)cc2)NC(=O)[C@H](CCC(=O)O)NC1=O)[C@@H](C)O [MP-956]	< 4.29

Then this compound:
Just so you know, measured pEC50 for CC(C)C[C@@H]1NC(=O)[C@H](C)NC(=O)[C@H](Cc2c[nH]c3ccccc23)NC(=O)[C@H](Cc2ccc(O)cc2)NC(=O)[C@H](CCC(=O)O)NC(=O)[C@](C)(NC(=O)[C@H](Cc2ccccc2)NC(=O)[C@H](CO)NC(=O)[C@@H](NC(=O)CNC(=O)[C@H](CO)NC(=O)CNC(=O)[C@@H](N)CCCCN=[N+]=[N-])[C@@H](C)O)CCCCCCC=CCCC[C@@](C)(C(=O)N[C@@H](CCC(=O)O)C(N)=O)NC(=O)[C@H](CC(C)C)NC1=O [MP-011] came out at < 4.30
